Data provenance is ChEMBL document CHEMBL1134584.

Target: Somatostatin receptor type 5 (Homo sapiens, UniProt P35346)
Sequence (P35346 whole entry): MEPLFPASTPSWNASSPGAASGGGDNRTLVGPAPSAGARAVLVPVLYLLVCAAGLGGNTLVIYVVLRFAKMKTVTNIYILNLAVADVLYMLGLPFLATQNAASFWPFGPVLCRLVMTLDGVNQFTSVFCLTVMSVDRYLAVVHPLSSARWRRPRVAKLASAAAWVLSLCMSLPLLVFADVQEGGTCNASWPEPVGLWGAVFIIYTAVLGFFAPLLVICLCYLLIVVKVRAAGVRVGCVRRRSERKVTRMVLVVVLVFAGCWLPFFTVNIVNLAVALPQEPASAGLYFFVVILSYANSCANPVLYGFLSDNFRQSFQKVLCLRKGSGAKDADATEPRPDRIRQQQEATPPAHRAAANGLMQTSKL
Experiment: Inhibition of [125 I -Tyr]SRIF-14 binding to membranes isolated from CHO-K1 cells expressing cloned human SRIF receptor (sst-5) subtype
Each record here notes measured Ki.
Value expressed in µM; do not type the unit.

CCCCC1(CCCC)N[C@@H](c2nc(-c3ccccc3)c[nH]2)Cc2c1[nH]c1ccccc21	2.2

Attention now turns to another entry.
Task item: Need Ki of CCCCC1(CCCC)N[C@H](c2nc(-c3ccccc3)c[nH]2)Cc2c1[nH]c1ccccc21 , thanks.
Reply: 3.7

====

Each record here notes measured IC50.
Molecular target: Somatostatin receptor type 3 (Homo sapiens, UniProt P32745)
Sequence (P32745 whole entry): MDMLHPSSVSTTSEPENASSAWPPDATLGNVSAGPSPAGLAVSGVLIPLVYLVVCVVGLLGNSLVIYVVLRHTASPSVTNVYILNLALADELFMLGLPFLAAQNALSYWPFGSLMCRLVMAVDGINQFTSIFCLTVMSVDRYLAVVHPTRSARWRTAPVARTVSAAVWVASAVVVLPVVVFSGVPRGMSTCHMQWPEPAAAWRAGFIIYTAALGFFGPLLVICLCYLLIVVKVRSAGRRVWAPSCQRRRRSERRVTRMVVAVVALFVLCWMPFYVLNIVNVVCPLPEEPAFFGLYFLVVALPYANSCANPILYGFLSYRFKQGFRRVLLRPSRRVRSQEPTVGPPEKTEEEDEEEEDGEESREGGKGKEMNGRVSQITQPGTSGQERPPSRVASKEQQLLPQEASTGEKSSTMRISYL
Test: Inhibitory concentration required to inhibit SRIF-14 induced reduction of cAMP in CHO-K1 cells expressing the human sst3 receptor.
Value expressed in nM; do not type the unit.

CCCCC1(CCCC)NC(c2nc(-c3ccccc3)c[nH]2)Cc2c1[nH]c1ccc(Cl)cc21 (stereo unspecified)	43
CC1(C2CCCCC2)N[C@H](c2nc(-c3ccccc3)c[nH]2)Cc2c1[nH]c1ccccc21 (stereo partly specified)	5.4
CCCCCC1(CCCCC)NC(c2nc(-c3ccccc3)c[nH]2)Cc2c1[nH]c1ccc(C)cc21 (stereo unspecified)	450
CCCCC1(CCCC)N[C@@H](c2nc(-c3ccccc3)c[nH]2)Cc2c1[nH]c1ccccc21	2.7
CCCCC1(CCCC)N[C@H](c2nc(-c3ccccc3)c[nH]2)Cc2c1[nH]c1ccccc21	6.8

Task item: Need IC50 of CCCCCC1(CCCCC)N[C@H](c2nc(-c3ccccc3)c[nH]2)Cc2c1[nH]c1ccccc21 , thanks.
Reply: 0.84
